The reported numbers originate from patent US20200216495A1.

# Assay target: Tau40 P301L protein (human)
# Assay method text: cell-based or functional assay
Square brackets hold non-standard residues; d marks the D form. Ends that are not written are not given here. dMet(O) = CS(=O)CC[C@@H](N)C(=O)O
IC50, Tau40 assay (ThT): recorded values
Just the number in µM, nothing appended.

Consider the worked cases shown below.
{"columns": ["Binder", "Assay readout", "Observed measurement"],
 "data": [
  ["[dW][dH][dV][dR][dL][dN][dH][dL] [whvrlnhl]", "IC50, Tau40 assay (ThT)", 6.39],
  ["[dL][dK][dI][dR][dI][dH][dY][dE] [lkirihye]", "IC50, Tau40 assay (ThT)", 3.32],
  ["[dW][dE][dL][dK][dV][dE][dW] [welkvew]", "IC50, Tau40 assay (ThT)", 10],
  ["[dT][dL][dK][dI][dE][dW] [tlkiew]", "IC50, Tau40 assay (ThT)", 8.08]
]}

Output measured IC50, Tau40 assay (ThT) for this item: [dL][dK][dI][dMet(O)][dI][dH][dY] [lkixihy]
2.81

Give the measured IC50, Tau40 assay (ThT) for [dE][dR][dL][dK][dV][dR][dW] [erlkvrw]
3.07

Report measured IC50, Tau40 assay (ThT); entry is [dW][dR][dV][dH][dF][dE][dH][dW] [wrvhfehw]
6.86

Provide IC50, Tau40 assay (ThT) value for the following binder: [dY][dR][dI][dR][dL][dE][dH][dV] [yrirlehv]
6.3

Supply measured IC50, Tau40 assay (ThT) of [dW][dN][dL][dK][dV][dN][dW] [wnlkvnw] in your reply.
4.86

Note down IC50, Tau40 assay (ThT) recorded for [dK][dL][dK][dI][dV][dW] [klkivw]
6.9

In one line, give reported IC50, Tau40 assay (ThT) of the entry [dW][dR][dL][dN][dV][dN][dW] [wrlnvnw] .
3.23

Look up and report measured IC50, Tau40 assay (ThT) for this entry: [dW][dK][dL][dK][dL][dR][dW][dW] [wklklrww]
4.13

Quick one: give measured IC50, Tau40 assay (ThT) for [dL][dK][dL][dK][dI][dK][dH][dF] [lklkikhf]
2.75

Give the reported IC50, Tau40 assay (ThT) for this binder. [dW][dR][dA][dK][dV][dR][dW] [wrakvrw]
3.23

Fill in IC50, Tau40 assay (ThT) for record [dA][dR][dA][dR][dI][dH][dW] [ararihw]
12.6

Identify measured IC50, Tau40 assay (ThT) associated with [dR][dI][dR][dL][dH][dW] [rirlhw]
6.97

Give the measured IC50, Tau40 assay (ThT) for [dL][dK][dI][dE][dI][dH][dY] [lkieihy]
3.32

Answer with the recorded IC50, Tau40 assay (ThT) for the binder listed here: [dW][dR][dT][dK][dT][dR][dW] [wrtktrw]
8.93
